Tested on: ACHN renal
Assay: NCI tumour cell line growth inhibition, 48 h
Measure Name: TGI

1. CCN(CC)CCN1C=CC(C)C(C(=O)O)C1C(N)=O (stereo not given)
> 100 µM
2. CCCCC#COS(=O)(=O)c1ccc(C)cc1
> 100 µM
3. COC(=O)C1CC2C=CC1N(C(=O)OCc1ccccc1)C2 (stereo not given)
> 100 µM
4. O=C1CCC(O)=C1N=Nc1cc(Cl)cc(Cl)c1
> 100 µM
5. CN(C)c1ccc(/C=C2\Oc3ccccc3C2=O)cc1
> 100 µM
6. O=C(/C=C/c1ccc(OCCSCCCCCCCCCCSCCOc2ccc(/C=C/C(=O)c3ccc(Cl)cc3)cc2)cc1)c1ccc(Cl)cc1
> 100 µM
7. CCCCCCc1nn2c(-c3ccncc3)nnc2s1
> 10 µM
8. CC(=O)OCC1OC(n2c(-c3cccs3)c3c(c(C#N)c2=S)-c2ccccc2CC3)C(OC(C)=O)C(OC(C)=O)C1OC(C)=O (stereo not given)
> 64 µM
9. Cc1ccc(-c2cc(C(=O)N3N=C(c4ccc(N)cc4)CC3c3ccc(Cl)cc3)c3ccccc3n2)cc1 (stereo not given)
> 100 µM
10. Cc1cc(C)c2cc(N)c(Cl)nc2n1
> 100 µM

----------
Reported TGI values are given for each entry in this list.
Tested on: BT-549 breast
Assay: NCI tumour cell line growth inhibition, 48 h
Measure Name: TGI

1. COC(=O)C(N)CSC(c1ccccc1)(c1ccccc1)c1ccccc1 (stereo not drawn)
53.3 µM
2. CCOC(=O)c1cc(NC(=O)N(CCC#N)CCN(C(=O)N[C@@H](Cc2ccccc2)C(=O)N[C@@H](CC(C)C)C(=O)NC)c2ccccc2)ccc1OC
82.9 µM
3. O=C(O)c1ccccc1CC1Cc2ccccc2C1
> 100 µM
4. COC(=O)CC1C(C)(C)C(=O)C2CC3=C4CC(=O)OC(c5ccoc5)C4(C)CCC3C1(C)C2=O (stereo not drawn)
> 100 µM
5. Cn1c(=O)cc(NNc2ccccc2)[nH]c1=O
> 100 µM
6. CN(C(=O)c1ccccc1)C1CCCC(=O)CC1 (stereo not drawn)
> 100 µM
7. COc1cccc(/C=N/Nc2ncnc3c2cnn3-c2cccc(OC)c2)c1
> 25 µM
8. CCCCOC(=O)NC(Nc1ccc(S(N)(=O)=O)cc1)(C(F)(F)F)C(F)(F)F
> 100 µM
9. CC(C)c1cc(C(F)(F)F)nc(NNc2nc(C(C)C)cc(C(F)(F)F)n2)n1
> 100 µM
10. Cc1ccc(C2c3c(n(C)c(=O)n(C)c3=O)OC(N(C)C)(N(C)C)C2(F)F)cc1 (stereo not drawn)
> 100 µM
11. COc1cc(OC)cc(C(=O)NC2=C(Cl)C(=O)c3ccccc3C2=O)c1
9.22 µM
12. COc1cc(-c2cc(=O)c3c(OC)c(OC)c(OC)c(OC)c3o2)cc(OC)c1OC
> 100 µM
13. Cn1cc(C2=C(c3cn(CCCO)c4ccccc34)C(=O)NC2=O)c2ccccc21
11.5 µM
14. COC(=O)C12CCC(C(F)(F)C1=O)C2(C)C (stereo not drawn)
> 100 µM
15. O=C(OCCN1CCCCCC1)C(c1ccsc1)C1CCCCC1 (stereo not drawn)
29.6 µM
16. CC1CN1C1=CC(=O)c2c(c(CO)cn2C)C1=O (stereo not drawn)
1.57 µM
17. Cn1cc(C2=C(c3cn(CCSC(=N)N)c4ccccc34)C(=O)NC2=O)c2ccccc21
8.31 µM
18. CN(C(=O)CC(=O)CP(=O)(c1ccccc1)c1ccccc1)c1ccccc1
> 100 µM

----------
System: TK-10 renal
Experiment: NCI tumour cell line growth inhibition, 48 h
Measure Name: TGI

1. C=C(C)C(=O)OC1CC2(C)OC(=CC2=O)C(C)CC2OC(=O)C(=C)C12 (stereo not drawn)
28.3 µM
2. CO[C@H](C(=O)[C@@H](O)[C@@H](C)O)[C@@H]1Cc2cc3cc(O[C@H]4C[C@@H](O[C@H]5C[C@@H](O)[C@H](O)C(C)O5)[C@H](O)C(C)(O)O4)cc(O)c3c(O)c2C(=O)[C@H]1O[C@H]1C[C@@H](O[C@H]2C[C@@H](O[C@H]3C[C@@H](OC)[C@H](O)C(C)O3)[C@@H](O)C(C)O2)[C@H](O)C(C)O1 (stereo partly drawn)
> 16.8 µM
3. O=C(/C=C/c1ccc(OCCSCCCCCCCCCCSCCOc2ccc(/C=C/C(=O)c3ccc(Cl)cc3)cc2)cc1)c1ccc(Cl)cc1
> 100 µM

----------
Tested on: OVCAR-8 ovarian
Experiment: NCI tumour cell line growth inhibition, 48 h
Listed here are compounds together with their documented TGI.
Measure Name: TGI

1) c1ccc2c(c1)SC1=Nc3sc4ccccc4[n+]3CN12
> 100 µM
2) Cc1cc(C)c(C#N)c(SC(=S)NC(=O)c2ccc(Cl)cc2)n1
> 100 µM
3) COC(=O)C12CCC(C(F)(F)C1=O)C2(C)C (stereo unspecified)
> 100 µM
4) COC1CC(OC2C(C)OC(OC3C(C)OC(OC4C(C)OC(O[C@H]5CC[C@@]6(C)C(=CC[C@]7(O)[C@@H]6C[C@@H](OC(=O)/C=C/c6ccccc6)[C@@]6(C)[C@]7(O)CC[C@@]6(O)C(C)=O)C5)CC4OC)CC3OC)CC2OC)OC(C)C1O (stereo partly specified)
> 12.5 µM
5) c1cc(-c2ccsc2-c2ccsc2)cs1
> 100 µM
6) CC1=NN(c2nc(N)nc(/C(C#N)=C\C3COc4ccccc4C3=O)n2)C(C)(C)C1 (stereo unspecified)
> 100 µM
7) COc1cc(OC)cc(C(=O)NC2=C(Cl)C(=O)c3ccccc3C2=O)c1
17.6 µM
8) c1ccc(NNN2NC(c3ccccc3)C2c2ccccc2)cc1 (stereo unspecified)
> 100 µM
9) CC(=O)OC/C=C(\C)CCC(Br)C(C)(C)Br (stereo unspecified)
> 10 µM
10) COc1cccc(C2C(C(=O)O)=C(CO)Oc3cc4c(cc32)OCO4)c1OC (stereo unspecified)
> 100 µM
11) CCCCCCNC(=O)Nc1ccc2cc3ccc(NC(=O)NCCCCCC)cc3nc2c1
2.88 µM
12) COc1ccc(CC#N)c(OCc2ccccc2)c1
> 100 µM
13) O=C(N=C1N(c2ccccc2)C(=O)C(=O)N1c1ccccc1)c1ccccc1
29.6 µM
14) CN(C)CCNc1ccc(NCCN(C)C)c2c1C(=O)c1ncsc1C2=O
27.8 µM
15) CCCCCCCCC1=CCC(CN(C)C)C1=O (stereo unspecified)
34.9 µM
16) O=C(OCCN=C1c2ccccc2CCc2ccccc21)c1ccccc1
> 100 µM
17) CCOC(=O)C1C(=O)C(C(=O)OCC)C(c2ccccc2)N(C)C1c1ccccc1 (stereo unspecified)
> 100 µM
18) N#Cc1c(-c2ccccc2)c(C#N)c(=S)n(C2OC(CO)C(O)C(O)C2O)c1N (stereo unspecified)
> 100 µM
19) COc1cc(O)c2c(=O)c(OC)c(-c3ccc(OC)c(OC)c3)oc2c1.[Co]
> 100 µM
20) COC(=O)C1CC2C=CC1N(C(=O)OCc1ccccc1)C2 (stereo unspecified)
> 100 µM
21) COc1ccc2c(c1)c(=O)c1c(NCCN(C)C)ccc3c(=O)n(CCN(C)C)c(=O)n2c31
3.1 µM

----------
Test system: HOP-62 NSCLC
Experiment: NCI tumour cell line growth inhibition, 48 h; in the data active = GI50 below about 0.43 µM; inactive = the rest
Outcome codes: True (active), False (inactive)

1. COc1ccc(S(=O)(=O)Nc2cc(/C=C\c3cc(OC)c(OC)c(OC)c3)cc(OC)c2OC)cc1
True
2. O=C(C[Si](CC(=O)c1cccc(C(F)(F)F)c1)CC(=O)c1cccc(C(F)(F)F)c1)c1cccc(C(F)(F)F)c1
False
3. CCCCCCNC(=O)Nc1ccc2cc3ccc(NC(=O)NCCCCCC)cc3nc2c1
False

----------
Test system: RPMI-8226 leukemia
Experiment: NCI tumour cell line growth inhibition, 48 h
Measure Name: TGI

1. Cc1cccc(C)c1NC(=O)CCC(=O)CC(=O)C(C)C
> 100 µM
2. CCC12CCCN(Cc3ccccc3)C1c1c(n(C)c3ccccc13)[C@H](C(=O)OC)C2 (stereo partly drawn)
> 239 µM
3. c1ccc(NNN2NC(c3ccccc3)C2c2ccccc2)cc1 (stereo not drawn)
> 100 µM
4. Cc1cc(Nc2cccc(F)c2)nc(NCc2ccccc2)n1
7.97 µM
5. Clc1ccc(C2c3ccccc3-c3nccn32)c(Cl)c1 (stereo not drawn)
8.48 µM
6. COC(=O)CCCc1c(-c2[nH]c3ccccc3c2CCCC(=O)OC)[nH]c2ccccc12
> 100 µM
7. N#CC1(C#N)C2=C(CCCC2)NC(c2ccc(Br)cc2)C1(C#N)C#N (stereo not drawn)
15.8 µM
8. COc1cccc(/C=N/Nc2ncnc3c2cnn3-c2cccc(OC)c2)c1
> 25 µM

----------
Reported values of TGI for individual entries
Tested on: CAKI-1 renal
Assay: NCI tumour cell line growth inhibition, 48 h
Measure Name: TGI (µM)

1. FC(F)(F)C1(Cl)C(Cl)(c2ccccc2)C1(Cl)c1ccccc1 (stereo unspecified)
25.6
2. O=C1OCC2=C1C(c1cccc(Cl)c1)c1cc3c(cc1N2CCO)OCO3 (stereo unspecified)
22.6
3. CN(C)CCNc1ccc(NCCN(C)C)c2c1C(=O)c1ncsc1C2=O
57.5
4. Cn1cnc([N+](=O)[O-])c1[Se]c1ncnc2nc[nH]c12
22.1
5. COc1ccc2nc3cc(Cl)ccc3c(NCCCCCN3CCCCC3)c2c1
4.03
